So I've got a bunch of molecules here, and I need their Kd values.
biological target: Serine/threonine-protein kinase MRCK beta (Homo sapiens); note: in the data inactive means no Kd found up to 30 µM
Sequence (Q9Y5S2 whole entry): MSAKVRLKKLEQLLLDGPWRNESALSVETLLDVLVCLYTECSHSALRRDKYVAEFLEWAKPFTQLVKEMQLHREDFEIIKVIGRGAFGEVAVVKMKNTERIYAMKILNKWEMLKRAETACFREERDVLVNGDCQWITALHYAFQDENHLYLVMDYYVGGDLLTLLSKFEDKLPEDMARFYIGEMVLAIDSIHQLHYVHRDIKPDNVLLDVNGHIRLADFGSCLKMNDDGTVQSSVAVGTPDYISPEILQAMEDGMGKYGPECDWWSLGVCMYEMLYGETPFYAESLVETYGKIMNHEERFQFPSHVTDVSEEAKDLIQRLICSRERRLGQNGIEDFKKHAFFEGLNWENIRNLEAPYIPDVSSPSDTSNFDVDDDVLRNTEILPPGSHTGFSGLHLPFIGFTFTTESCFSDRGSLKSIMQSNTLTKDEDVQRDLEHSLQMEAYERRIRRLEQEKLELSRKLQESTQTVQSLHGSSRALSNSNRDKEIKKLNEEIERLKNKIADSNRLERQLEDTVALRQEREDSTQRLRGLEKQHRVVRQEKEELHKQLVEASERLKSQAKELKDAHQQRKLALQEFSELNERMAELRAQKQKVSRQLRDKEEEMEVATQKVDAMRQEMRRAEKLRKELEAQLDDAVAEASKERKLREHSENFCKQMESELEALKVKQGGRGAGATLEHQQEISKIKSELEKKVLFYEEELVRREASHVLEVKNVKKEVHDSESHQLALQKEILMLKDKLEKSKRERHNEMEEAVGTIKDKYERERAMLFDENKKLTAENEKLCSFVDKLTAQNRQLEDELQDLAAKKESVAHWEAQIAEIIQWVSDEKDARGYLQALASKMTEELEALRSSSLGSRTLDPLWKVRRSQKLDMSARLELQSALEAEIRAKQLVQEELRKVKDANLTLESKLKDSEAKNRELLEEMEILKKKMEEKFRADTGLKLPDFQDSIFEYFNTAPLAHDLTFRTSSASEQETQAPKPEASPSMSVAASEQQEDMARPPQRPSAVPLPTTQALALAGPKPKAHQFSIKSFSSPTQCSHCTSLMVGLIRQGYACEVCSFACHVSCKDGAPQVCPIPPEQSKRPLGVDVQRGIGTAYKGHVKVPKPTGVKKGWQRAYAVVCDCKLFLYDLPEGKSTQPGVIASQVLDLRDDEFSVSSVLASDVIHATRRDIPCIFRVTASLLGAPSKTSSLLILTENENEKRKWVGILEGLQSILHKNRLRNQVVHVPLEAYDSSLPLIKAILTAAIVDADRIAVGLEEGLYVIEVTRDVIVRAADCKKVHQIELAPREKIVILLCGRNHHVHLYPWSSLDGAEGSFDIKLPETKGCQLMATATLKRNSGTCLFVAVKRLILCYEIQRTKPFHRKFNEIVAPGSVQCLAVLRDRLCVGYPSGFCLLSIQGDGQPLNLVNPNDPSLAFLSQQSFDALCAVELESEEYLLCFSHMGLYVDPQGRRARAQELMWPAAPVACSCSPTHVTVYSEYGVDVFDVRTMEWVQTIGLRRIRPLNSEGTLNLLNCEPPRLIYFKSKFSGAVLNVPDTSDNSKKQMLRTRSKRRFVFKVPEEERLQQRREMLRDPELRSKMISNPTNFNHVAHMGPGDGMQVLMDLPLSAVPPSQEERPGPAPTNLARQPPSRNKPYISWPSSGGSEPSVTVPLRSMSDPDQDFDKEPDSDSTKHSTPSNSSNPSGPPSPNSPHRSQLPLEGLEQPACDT
The source made the active and inactive calls.

What does the data say about its Kd? Entry: O[C@H]1CC[C@H](Nc2ncc3nc(Nc4c(F)cc(F)cc4F)n([C@H]4CCOC4)c3n2)CC1 [TANZISERTIB]
> 30 µM (inactive)

Input CCc1cc2c(cc1N1CCC(N3CCOCC3)CC1)C(C)(C)c1[nH]c3cc(C#N)ccc3c1C2=O [ALECTINIB]
> 30 µM (inactive)

Input S=C(NCc1ccc2c(c1)OCO2)N1CCN(c2ncnc3c2oc2ccccc23)CC1 [AMUVATINIB]
> 30 µM (inactive)

Input COc1cc2nccc(Oc3ccc(NC(=O)C4(C(=O)Nc5ccc(F)cc5)CC4)cc3)c2cc1OC [CABOZANTINIB]
> 30 µM (inactive)

Input Cn1c(=O)c(F)c(Nc2ccc(I)cc2F)c2c(=O)n(C[C@@H](O)CO)cnc21 [TAK-733]
> 30 µM (inactive)

Input COc1cc2ncnc(Nc3ccc(F)c(Cl)c3)c2cc1NC(=O)/C=C/CN1CCCCC1 [DACOMITINIB ANHYDROUS]
> 30 µM (inactive)

Input Cc1cc(-c2cc(OC(=O)c3ccccc3)ccc2Cl)cc2nnc(Nc3ccc(OCCN4CCCC4)cc3)nc12 [TG100-801]
> 30 µM (inactive)

Input O=C(NOC[C@H](O)CO)c1ccc(F)c(F)c1Nc1ccc(I)cc1F [MIRDAMETINIB]
> 30 µM (inactive)

----------
target: Proto-oncogene tyrosine-protein kinase Src (Homo sapiens); note: in the data inactive means no Kd found up to 30 µM
Sequence (P12931 2-536 limits assumed): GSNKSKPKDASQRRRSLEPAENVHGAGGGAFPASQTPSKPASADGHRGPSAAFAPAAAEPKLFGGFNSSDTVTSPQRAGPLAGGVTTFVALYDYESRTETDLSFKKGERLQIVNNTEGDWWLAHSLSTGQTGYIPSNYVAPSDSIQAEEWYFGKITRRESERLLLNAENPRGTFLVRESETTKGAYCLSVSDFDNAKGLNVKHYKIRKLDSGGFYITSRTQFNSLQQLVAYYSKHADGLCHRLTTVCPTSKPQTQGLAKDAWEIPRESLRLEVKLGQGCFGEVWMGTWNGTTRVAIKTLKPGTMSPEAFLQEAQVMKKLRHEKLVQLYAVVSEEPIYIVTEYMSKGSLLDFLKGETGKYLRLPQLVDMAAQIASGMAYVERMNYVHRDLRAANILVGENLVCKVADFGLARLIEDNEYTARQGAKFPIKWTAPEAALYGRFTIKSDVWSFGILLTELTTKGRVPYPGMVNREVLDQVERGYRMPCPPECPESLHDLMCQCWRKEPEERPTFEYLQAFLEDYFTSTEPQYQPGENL
Activity calls are given as the source filed them.
Assign a class; possible classes are TRUE = active, FALSE = inactive

# lookup: test call for `O=C(Nc1ccc(OC(F)(F)F)cc1)c1sccc1NCc1ccnc2ccccc12`
FALSE

Input `COc1cc2ncnc3c2cc1OCCCCCN(C)Cc1ccc(Br)cc1N3`
FALSE

Input `O=c1[nH]c([C@@H]2CCCN2)nc2c1oc1ccc(Cl)cc12`
FALSE

Input `Cc1c(Cn2c(C)nc3c(C(=O)O)cc(N4CCOCC4)cc32)cccc1C(F)(F)F`
FALSE

Input `CC(C)CC(=O)Nc1[nH]nc2c1CN(C(=O)C1CCN(C)CC1)C2(C)C`
FALSE

Input `NC[C@@](O)(c1ccc(Cl)cc1)c1ccc(-c2cn[nH]c2)cc1`
FALSE

Input `CCOc1ccn(-c2ccc(F)cc2)c(=O)c1C(=O)Nc1ccc(Oc2ccnc(N)c2Cl)c(F)c1`
FALSE

Input `COc1cc2ncnc(Nc3ccc(O)cc3)c2cc1OC`
FALSE

Input `CC1(COc2ccc3c(c2)ncn3-c2ccc3cccc(N4CCC(N)CC4)c3n2)COC1`
FALSE

Input `CNC(=O)c1cccc(-c2ccc3c(N4CCOC[C@@H]4C)nc(N4CCOC[C@@H]4C)nc3n2)c1`
FALSE

Input `C=CCn1c(=O)c2cnc(Nc3ccc(N4CCN(C)CC4)cc3)nc2n1-c1cccc(C(C)(C)O)n1`
FALSE

Input `COc1cccc(Nc2ncnn3ccc(CN4CC[C@@H](N)[C@H](O)C4)c23)c1`
TRUE

Input `O=C(NC[C@H](O)CO)c1ccncc1Nc1ccc(I)cc1F`
FALSE

Input `O[C@H]1CC[C@H](Nc2ncc3nc(Nc4c(F)cc(F)cc4F)n([C@H]4CCOC4)c3n2)CC1`
FALSE

Input `COc1cccc2cc(-c3nc([C@H]4CC[C@H](C(=O)O)CC4)n4ncnc(N)c34)[nH]c12`
FALSE

Input `CC[C@@](C)(Nc1ccnc(-c2c[nH]c3ncccc23)n1)C(=O)NCC(F)(F)F`
FALSE

Input `FC(F)(F)c1ccc(CNc2ccc(Cc3c[nH]c4ncc(Cl)cc34)cn2)cn1`
FALSE

Input `S=C(NCc1ccc2c(c1)OCO2)N1CCN(c2ncnc3c2oc2ccccc23)CC1`
FALSE
